# target.system: T1, recombinant monomeric SARS-CoV-2 S1 protein, his-tagged (SARS-CoV-2, UniProt P0DTC2 16-681)
# T1 construct: domain: S1
# assay: flow cytometry, blocking of binding to hACE-2 cells
reported.endpoint: percent blocking (%)
Value expressed in %; do not type the unit.

- binder: "1035709 (antibody, V domains shown) VH: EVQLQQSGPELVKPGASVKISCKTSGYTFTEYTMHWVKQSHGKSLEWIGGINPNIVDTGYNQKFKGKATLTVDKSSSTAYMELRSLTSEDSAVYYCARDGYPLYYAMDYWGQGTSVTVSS VL: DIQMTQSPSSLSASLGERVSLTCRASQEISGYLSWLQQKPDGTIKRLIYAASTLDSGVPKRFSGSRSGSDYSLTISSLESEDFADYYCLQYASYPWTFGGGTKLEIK"
  percent blocking [%]: 93.6
- binder: "1035211 (antibody, V domains shown) VH: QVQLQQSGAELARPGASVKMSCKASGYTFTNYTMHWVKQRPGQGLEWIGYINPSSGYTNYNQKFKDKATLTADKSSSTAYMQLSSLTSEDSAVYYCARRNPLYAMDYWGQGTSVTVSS VL: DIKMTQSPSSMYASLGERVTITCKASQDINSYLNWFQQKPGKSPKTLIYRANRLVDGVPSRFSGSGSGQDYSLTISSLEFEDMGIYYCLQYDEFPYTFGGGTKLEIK"
  percent blocking [%]: 88.7

Need percent blocking, item 1035240 (antibody, V domains shown) VH: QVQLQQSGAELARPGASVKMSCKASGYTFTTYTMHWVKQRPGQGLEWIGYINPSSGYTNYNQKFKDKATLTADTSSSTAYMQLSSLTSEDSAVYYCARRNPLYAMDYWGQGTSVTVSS VL: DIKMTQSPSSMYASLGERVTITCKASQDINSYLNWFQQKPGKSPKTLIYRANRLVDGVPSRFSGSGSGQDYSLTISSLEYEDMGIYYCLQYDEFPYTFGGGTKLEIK
56.5
